Data provenance: patent US9073935B2

# key: entry, value: Emax
- target: mAChR M1 (UniProt P11229)
- assay.summary: mAChR M1 cell-based functional assay (calcium mobilization, potentiation of EC20 acetylcholine response)
- assay.context: % ACh maximum at 30 μM
Number only, in %; omit the unit.

Examples with answers:
The molecule Cn1cc(-c2ccc(CN3C(=O)C4(CCN(C(=O)c5ccccc5)C4)c4ccccc43)c(F)c2)cn1 (single isomer, unassigned) [Compound B45] on mAChR M1 (UniProt P11229): Emax was 38

The molecule Cn1cc(-c2ccc(CN3C(=O)C4(CCN(C5CCCCC5F)C4)c4ccccc43)c(F)c2)cn1 (stereo not shown) on mAChR M1 (UniProt P11229): Emax was 67

The molecule CN1CCCC(N2CCC3(CC2)C(=O)N(Cc2ccc(-c4cnn(C)c4)cc2F)c2ccccc23)C1 (stereo not shown) on mAChR M1 (UniProt P11229): Emax was 57

The molecule Cn1cc(-c2cc(F)c(CN3C(=O)C4(CCN(C5CCCC5)C4)c4ccccc43)c(F)c2)cn1 (stereo not shown) on mAChR M1 (UniProt P11229): Emax was 72

The molecule Cn1cc(-c2ccc(CN3C(=O)C4(CCN(C5CCCNC5)CC4)c4ccccc43)c(F)c2)cn1 (stereo not shown) on mAChR M1 (UniProt P11229): Emax was 48

The molecule CC1CCC(N2CCC3(C2)C(=O)N(Cc2ccc(-c4cnn(C)c4)cc2F)c2ccccc23)CC1 (stereo not shown) on mAChR M1 (UniProt P11229): Emax was 46

// next item, Emax requested
The molecule Cn1cc(-c2ccc(CN3C(=O)C4(CCN(C5CCCC5)C4)c4ccccc43)c(F)c2)cn1 (stereo not shown) on mAChR M1 (UniProt P11229): Emax was 61
